All figures here come from paper PMC3817407.

Molecular target: T1, ECF02_915
T1 chain: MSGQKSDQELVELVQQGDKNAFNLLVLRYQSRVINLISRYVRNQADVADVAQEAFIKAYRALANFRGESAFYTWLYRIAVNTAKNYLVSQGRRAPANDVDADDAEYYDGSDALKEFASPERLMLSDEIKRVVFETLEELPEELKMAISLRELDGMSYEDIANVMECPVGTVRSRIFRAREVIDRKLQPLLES
Could you please report measured fold repression for the items listed next?
// no unit string in output, number only

Given the binder AS01_3473 (protein) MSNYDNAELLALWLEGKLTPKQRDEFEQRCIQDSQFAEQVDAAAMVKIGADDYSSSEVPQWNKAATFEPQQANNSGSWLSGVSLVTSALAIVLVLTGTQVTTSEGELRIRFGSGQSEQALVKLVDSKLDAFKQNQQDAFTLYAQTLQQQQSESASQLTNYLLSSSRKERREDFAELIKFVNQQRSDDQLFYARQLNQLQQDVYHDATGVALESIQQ , what is its reported fold repression? 2.34

Given the binder AS35_3582 (protein) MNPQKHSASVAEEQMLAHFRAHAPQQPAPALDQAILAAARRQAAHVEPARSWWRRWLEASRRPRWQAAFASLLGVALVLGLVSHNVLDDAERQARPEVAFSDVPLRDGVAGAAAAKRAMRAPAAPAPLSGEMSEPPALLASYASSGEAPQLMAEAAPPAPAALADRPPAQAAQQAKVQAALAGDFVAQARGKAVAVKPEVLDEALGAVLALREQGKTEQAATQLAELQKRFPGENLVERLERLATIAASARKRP , what is its reported fold repression? 3.95

Given the binder AS11_987 (protein) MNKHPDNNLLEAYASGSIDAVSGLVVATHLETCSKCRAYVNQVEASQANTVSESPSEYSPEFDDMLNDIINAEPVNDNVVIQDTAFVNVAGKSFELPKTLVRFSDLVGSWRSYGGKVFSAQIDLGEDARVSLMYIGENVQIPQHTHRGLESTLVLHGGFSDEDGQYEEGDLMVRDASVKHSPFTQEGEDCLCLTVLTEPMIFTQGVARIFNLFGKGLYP , what is its reported fold repression? 3.1

Given the binder AS31_34 (protein) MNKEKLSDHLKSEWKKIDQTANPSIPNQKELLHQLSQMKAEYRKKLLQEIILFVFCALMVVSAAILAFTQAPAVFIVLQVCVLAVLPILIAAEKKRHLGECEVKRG , what is its reported fold repression? 1.32
